Biological target: T1, full-length untagged human GPNMB expressed on cells (human, UniProt Q14956 23-572)
T1 sequence: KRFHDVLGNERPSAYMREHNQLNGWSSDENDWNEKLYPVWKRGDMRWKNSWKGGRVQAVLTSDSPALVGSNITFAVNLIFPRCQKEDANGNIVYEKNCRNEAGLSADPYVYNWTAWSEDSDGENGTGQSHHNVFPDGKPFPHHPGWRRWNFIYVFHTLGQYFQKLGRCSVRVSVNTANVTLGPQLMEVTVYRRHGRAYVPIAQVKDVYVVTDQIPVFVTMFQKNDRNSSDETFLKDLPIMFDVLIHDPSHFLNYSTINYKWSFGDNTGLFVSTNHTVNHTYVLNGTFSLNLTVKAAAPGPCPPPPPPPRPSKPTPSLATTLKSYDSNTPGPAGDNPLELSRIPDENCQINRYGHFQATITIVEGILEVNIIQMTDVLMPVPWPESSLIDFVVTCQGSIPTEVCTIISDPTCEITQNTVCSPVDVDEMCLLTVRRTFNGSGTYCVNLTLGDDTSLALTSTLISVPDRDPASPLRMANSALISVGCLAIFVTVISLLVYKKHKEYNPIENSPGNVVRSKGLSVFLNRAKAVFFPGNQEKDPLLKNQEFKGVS
Assay: cell-based or functional assay
CD40 (FoB) reference
Quick note: give the figure in FoB, leave out the unit.

Binder: anti-GPNMB antibody GPN-34 (antibody, human IgG1, V domains shown, chimeric) VH: EVKLVESGGGLVQPGRSLKLSCAASGFNFYDYWMGWVRQAPGKGLEWIGEINKDSRTINYTPFLKDRFTISRDNAQNTLYLQMSKLGSEDTAIYYCAREGRVPFDYWGQGVMVTVSS VL: DIQMTQSPSSMSVSLGDTVTIPCRASQDVGSYVNWFQQKPGKSPRHMIYRATNLADGVPSRFSGSRSGADYSLTISSLESEDVADYHCQQYAEYPLTFGSGTKLEIK
Endpoint result: 1.52
--
Binder: anti-GPNMB antibody GPN-24 (antibody, human IgG1, V domains shown, chimeric) VH: QVQLQQPGAELVKPGASVKMSCKASGYTFTSYWITWVKQRPGQGLEWIGDIHPGSGRSNYNEKFKNKATLNVDTSSSTVYMQLSSLTSEDSAVYYCARDYLFAYWGQGTLVTVSA VL: DIQMTQSPSSLSASLGERVSLTCRASQEISGYLSWLQQKPDGTIKRLIYSTSTLDSGVPKRFSGSRSGSDYSLTISSLESEDFADYYCLQYTSSPPTFGGGTKLEIK
Endpoint result: 1.56
--
Binder: anti-GPNMB antibody GPN-08 (antibody, human IgG1, V domains shown, chimeric) VH: QVQLQQPGAELVKPGASVKLSCRASGYTFTSYWLHWVKQRPGQGLEWIGEINPSDGRTNYIEKVKTKATLTVDKSSSTAYMQLSSLTSEDSAVYYCARSGGNYAWFAYWGQGTLVTVSA VL: DIVMTQSHKFMSTSVGDRVSITCKASQDVSPSVAWYQQRPGQSPKLLIYSASYRYTGVPDRFTGSGSGTDFTFTISSVQAEDLAVYYCQQHYSIPLTFGAGTKLELK
Endpoint result: 1.35
--
Binder: anti-GPNMB antibody GPN-09 (antibody, human IgG1, V domains shown, chimeric) VH: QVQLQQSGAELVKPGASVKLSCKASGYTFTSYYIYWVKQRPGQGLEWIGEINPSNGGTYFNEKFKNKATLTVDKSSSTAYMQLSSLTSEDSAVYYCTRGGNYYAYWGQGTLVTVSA VL: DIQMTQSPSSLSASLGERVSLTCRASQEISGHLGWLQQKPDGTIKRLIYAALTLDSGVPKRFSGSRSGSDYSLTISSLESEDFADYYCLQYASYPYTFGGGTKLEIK
Endpoint result: 1.49
--
Binder: anti-GPNMB antibody GPN-01 (antibody, human IgG1, V domains shown, chimeric) VH: QVQLQQSGAELAKPGASVKLSCKASGYNFTNYCIHWVKQRPGQGLEWIGYINPSTGYTEYNQKFKDKATLTADKSSTTAYMQLSSLTSEDSAVYYCARGRYDEFTYWGQGTLVTVSA VL: DIVLTQSPASLAVSLGQRATISCRASKSVSTSTYSYMHWYQQKPGQPPKLLIYLASNLESGVPARFSGSGSGTDFTLNIHPVEEEDAATYYCQHSRELPPTFGGGTKLEIK
Endpoint result: 1.74

Enquiry: Form field: reported CD40 (FoB) of anti-GPNMB antibody GPN-30 (antibody, human IgG1, V domains shown, chimeric) VH: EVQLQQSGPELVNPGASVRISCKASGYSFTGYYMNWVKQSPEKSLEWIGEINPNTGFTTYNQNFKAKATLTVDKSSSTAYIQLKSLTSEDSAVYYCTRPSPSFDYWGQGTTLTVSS VL: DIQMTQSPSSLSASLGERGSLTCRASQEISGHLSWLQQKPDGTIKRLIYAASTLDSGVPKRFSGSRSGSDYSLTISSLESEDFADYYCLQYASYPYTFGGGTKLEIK
Return: 1.75

Origin of measurements: patent US20250270343A1
